Item-by-item account of inhibition at 1 µM
# test_target: 5-HT2A receptor (Rattus norvegicus (Rat), UniProt P14842)
# Sequence (P14842 whole entry): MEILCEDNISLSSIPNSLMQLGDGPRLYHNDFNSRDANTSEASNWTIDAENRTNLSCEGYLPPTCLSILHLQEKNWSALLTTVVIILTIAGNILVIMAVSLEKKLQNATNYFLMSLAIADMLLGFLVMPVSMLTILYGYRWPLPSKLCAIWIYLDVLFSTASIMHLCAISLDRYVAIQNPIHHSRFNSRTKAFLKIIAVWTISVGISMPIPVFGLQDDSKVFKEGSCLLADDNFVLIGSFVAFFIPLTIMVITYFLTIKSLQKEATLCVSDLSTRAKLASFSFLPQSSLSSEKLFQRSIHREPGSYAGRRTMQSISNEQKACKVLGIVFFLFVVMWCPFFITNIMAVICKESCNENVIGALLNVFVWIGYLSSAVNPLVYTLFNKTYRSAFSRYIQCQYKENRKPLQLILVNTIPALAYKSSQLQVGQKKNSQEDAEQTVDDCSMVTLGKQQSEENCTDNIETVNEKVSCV
# assay_overview: Binding to 5-HT2A receptor ([3H]-Ketanserin, rat cortical membranes)
# Set-up: species or system Sprague-Dawley (SD) rats
# stated_conditions: 1 h, read-out: 5-HT2A: Suppression
Reply with just the number (in %).

Before answering, review these 5 worked examples.
>  <molecule>
CC(C)(C)c1ccc(C(CCN2CCN(c3ccccc3)CC2)OC(N)=O)cc1 (stereo not shown)

>  <test_target>
5-HT2A receptor (Rattus norvegicus (Rat), UniProt P14842)

>  <measured_metric>
inhibition at 1 µM

>  <reading>
98.8

$$$$
>  <molecule>
NC(=O)OC(CCN1CCN(c2ccccc2)CC1)c1cccc(Cl)c1 (stereo not shown)

>  <test_target>
5-HT2A receptor (Rattus norvegicus (Rat), UniProt P14842)

>  <measured_metric>
inhibition at 1 µM

>  <reading>
93.7

$$$$
>  <molecule>
Cc1ccc(C(CCN2CCN(c3ccccc3)CC2)OC(N)=O)cc1 (stereo not shown)

>  <test_target>
5-HT2A receptor (Rattus norvegicus (Rat), UniProt P14842)

>  <measured_metric>
inhibition at 1 µM

>  <reading>
85.6

$$$$
>  <molecule>
NC(=O)OC(CCN1CCN(c2ccccc2)CC1)c1cccc([N+](=O)[O-])c1 (stereo not shown)

>  <test_target>
5-HT2A receptor (Rattus norvegicus (Rat), UniProt P14842)

>  <measured_metric>
inhibition at 1 µM

>  <reading>
86.4

$$$$
>  <molecule>
Cc1ccccc1N1CCN(CCC(OC(N)=O)c2ccc(F)cc2)CC1 (stereo not shown)

>  <test_target>
5-HT2A receptor (Rattus norvegicus (Rat), UniProt P14842)

>  <measured_metric>
inhibition at 1 µM

>  <reading>
76.8

$$$$

Look up and state reported inhibition at 1 µM for NC(=O)OC(CCN1CCN(c2ccccc2)CC1)c1ccc(Cl)cc1 (stereo not shown) 84.6

Give reported inhibition at 1 µM value for COc1ccc(C(CCN2CCN(c3ccccc3)CC2)OC(N)=O)cc1 (stereo not shown) 82

====

Measured pIC50 (5-HT2A receptor (Rattus norvegicus (Rat)))
In plain terms, pIC50 is the concentration in mol/L turned into minus its base-10 logarithm.

// worked examples, pIC50 included
>  <compound>
NC(=O)OC(CCN1CCN(c2ccc([N+](=O)[O-])cc2)CC1)c1ccccc1 (centres unmarked)

>  <test_target>
5-HT2A receptor (Rattus norvegicus (Rat))

>  <reading>
5.69

$$$$
>  <compound>
NC(=O)OC(CCN1CCN(c2ccc(Cl)cc2)CC1)c1ccccc1 (centres unmarked)

>  <test_target>
5-HT2A receptor (Rattus norvegicus (Rat))

>  <reading>
6.58

$$$$

Consider the compound COc1ccccc1N1CCN(CCC(OC(N)=O)c2ccccc2)CC1 (centres unmarked) tested on 5-HT2A receptor (Rattus norvegicus (Rat)); state its pIC50. 6.79

Quote 5-HT2A receptor (Rattus norvegicus (Rat)) pIC50 for entry COc1cccc(N2CCN(CCC(OC(N)=O)c3ccccc3)CC2)c1 (centres unmarked) . 6.30

Tell me pIC50 of COc1ccccc1N1CCN(CCCC(OC(N)=O)c2ccccc2)CC1 (centres unmarked) when tested on 5-HT2A receptor (Rattus norvegicus (Rat)). 5.82

Please tell me the measured pIC50 for NC(=O)OC(CCN1CCN(c2cccc(Cl)c2)CC1)c1ccccc1 (centres unmarked) ; system: 5-HT2A receptor (Rattus norvegicus (Rat)). 7.21

Please report pIC50 with 5-HT2A receptor (Rattus norvegicus (Rat)) for item NC(=O)OC(CCN1CCN(c2ccccc2)CC1)c1ccccc1 (centres unmarked) . 6.86

Report pIC50 on 5-HT2A receptor (Rattus norvegicus (Rat)) for this entry: COc1ccc(N2CCN(CCC(OC(N)=O)c3ccccc3)CC2)cc1 (centres unmarked) 5.23

State recorded pIC50 with 5-HT2A receptor (Rattus norvegicus (Rat)), entry NC(=O)OC(CCN1CCN(c2ccccn2)CC1)c1ccccc1 (centres unmarked) , no comment. 6.35

Answer briefly: pIC50 recorded on 5-HT2A receptor (Rattus norvegicus (Rat)) for NC(=O)OC(CCCN1CCN(c2ncccc2Cl)CC1)c1ccccc1 (centres unmarked) 6.28

Please respond with reported pIC50 (system 5-HT2A receptor (Rattus norvegicus (Rat))) for NC(=O)OC(CCN1CCN(c2ccc(F)cc2)CC1)c1ccccc1 (centres unmarked) . 7.19
